target: His-DciA WT (UniProt A0A0H3C5R2 1-179); test: EMSA; 150 mM K-glutamate; EMSA: 20 mM Tris-HCl pH 7.5, 10 mM Mg acetate, 50 or 150 mM K-glutamate, 0.1 mg/ml BSA, 10% glycerol, 2 mM ATP, 12.5 nM DNA, 5 min on ice; M13 pull-down: Tris pH 7.5, 10 mM Mg acetate, 50 mM K-glutamate, 0.1 mM ATP, 0.1 mg/ml BSA, 30 C; conditions: protein: recombinant; tags: N-terminal His6; label: 5'-FAM
Sequence (A0A0H3C5R2 entry or part of it): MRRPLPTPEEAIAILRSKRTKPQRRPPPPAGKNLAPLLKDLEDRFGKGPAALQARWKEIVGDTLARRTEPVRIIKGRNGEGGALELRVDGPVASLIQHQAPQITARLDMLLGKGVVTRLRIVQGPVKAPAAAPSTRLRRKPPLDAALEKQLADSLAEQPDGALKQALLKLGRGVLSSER
The following binders are shown together with reported Kd values.
Number in nM, nothing else.

-- ask Form field: reported Kd of 80-mer oligo 1790 (ssDNA) DNA: TCCTTGTTATCCACAGGGCAGTTTTTTTTTTTTTTTTTTTTTTTTTTTTTTTTTTTTTTTTGTGCGATATAGTTCTCCGA
-- reply 25.4

Next up:
-- ask Form field: reported Kd of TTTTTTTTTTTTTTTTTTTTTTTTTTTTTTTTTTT (ssDNA) [35-mer oligo 2201]
-- reply 109
